# procedure.text: qHTS assay for small molecule activators of the nuclear factor-kappa B (NF-kB) signaling pathway (AID 651749); note: series mostly up to about 77 µM; % of control where 0% means no effect
# settings: NF-kB-bla ME-180 cells, beta-lactamase FRET ratio, 16 h; active compounds read high
Inconclusive results are not listed. The source made the active and inactive calls. Calls come from the whole dose curve; as a rule, active = well fitted activation curve with a large enough effect in the signal ratio; inconclusive = small, poorly fitted or top-dose-only effect, or a change in a side signal; inactive = flat fitted curve, though single readings scatter; the % refers to the signal ratio.
value.kind: activation

1) O=[N+]([O-])c1ccc(O)c([N+](=O)[O-])c1 :: 3.32% (inactive)
2) ClC(Cl)C(Cl)Cl :: -0.991% (inactive)
3) Oc1cccc(Cl)c1 :: -0.548% (inactive)
4) C/C=C/CC#N :: 1.19% (inactive)
5) ClCc1ccccc1 :: -0.661% (inactive)

Lookup: Requested read-out: activation. Entry: `O=C(O)c1cccc(Cl)c1`
Found: -1.59% (inactive)

Lookup: Then what about the compound `CCOC(=O)CBr` ?
Found: -0.133% (inactive)

Lookup: Then what about the compound `CCCCCCCCCCCOC(=O)c1ccccc1C(=O)OCCCCCCCCCCC` ?
Found: -0.4% (inactive)

Lookup: Then what about the compound `O=[N+]([O-])c1cccc2c([N+](=O)[O-])cccc12` ?
Found: 0.0339% (inactive)

Lookup: Then what about the compound `Cc1cnc[nH]1` ?
Found: -0.55% (inactive)

Lookup: Then what about the compound `N#CCc1ccccc1` ?
Found: 0.487% (inactive)

Lookup: Then what about the compound `NNC(N)=S` ?
Found: 0.227% (inactive)
